Assay: NCI Yeast Anticancer Drug Screen. Data for the bub3 strain (AID 167)
Conditions: S. cerevisiae bub3 mutant strain, at 50.0 µM, stronger effect = higher value
Description: Growth inhibition of yeast strains with defined genetic alterations is measured as a screen for potential anti-cancer activity. Selected strains with alterations in DNA damage repair or cell cycle control were exposed to compounds and growth inhibition was measured relative to vehicle treated controls. The strain used in this assay is bub3
This is part of a sample that, as a whole, favours compounds with a hit. Of some 79,000 tested, about 15% had one in any assay.
Answer each item with its documented growth inhibition.
Quick reminder: number only, in %, skip the unit.

Req: Fill in: growth inhibition of OC(c1cc(-c2ccccc2)nc2c(Cl)cc(Cl)cc12)C1CCCCN1 (centres undefined) is ___
Resp: 97.5

Req: Looking for the measured growth inhibition of O=C(c1ccccc1)C(c1ccccc1)C1(O)C(=O)Nc2c(Cl)cc(Cl)cc21 (centres undefined) , can you help?
Resp: 93.2

Req: For the molecule `CCCCNc1ncc(OCC)c(NCCCC)n1` , what growth inhibition is on record?
Resp: 94.9

Req: Entry Cc1nn(C(=O)c2ccccc2O)c2c1C(c1ccc([N+](=O)[O-])cc1)SC(N)=N2 (centres undefined) : reported growth inhibition = ?
Resp: 91.2

Req: Any idea what growth inhibition was measured for `CCOC(=O)Cn1c(=O)c2nc(SC)sc2n(-c2ccc(C)cc2)c1=S` ?
Resp: -10.4

Req: Which value of growth inhibition has been reported for `CN(C)S(=O)(=O)c1cc(Cl)ccc1NN` in the records?
Resp: 78.4

Req: Which growth inhibition is reported for this molecule? `Cn1c2nc(-[n+]3ccccc3)nc-2c([O-])n(C)c1=O`
Resp: -6.95

Req: Query (molecule): `O=C1CNC(=O)c2cc(Cl)ccc2N1` ; field requested: growth inhibition
Resp: 40.1

Req: Requested read-out: growth inhibition. Entry: `CCOC(=O)C1=C(Nc2ccc(Cl)c(Cl)c2)OC/C1=N\NS(=O)(=O)c1ccc(C)cc1`
Resp: 63

Req: # lookup: growth inhibition of `COc1ccc2c(c1)S(=O)(=O)C(c1ccccc1)=CC2=O`
Resp: 99.5

Req: Entry under review: `C=C(Br)CN(CC)CC` . Reported growth inhibition?
Resp: -0.5

Req: // returns reported growth inhibition for input `CC#CC#C/C=C1/C=CC(=O)O1`
Resp: 13.5

Req: Name the recorded growth inhibition for `Cc1ccc2ccc3ccc(C)nc3c2n1` .
Resp: 97

Req: What value of growth inhibition has been recorded for this entry: `Cc1c(N=Nc2cccc(F)c2)c(-c2ccccc2)nn1C(N)=S`
Resp: 99.5

Req: Entry `O=C1NC(=O)C(Cc2ccccc2)(Cc2ccccc2)S1` : reported growth inhibition = ?
Resp: 99.5

Req: Report growth inhibition for `O=S(=O)(Nc1ccccc1Cl)c1ccccc1` please.
Resp: 81.1

Req: Item under review: `CN1C/C(=C\c2ccc(Cl)cc2)C(=O)/C(=C/c2ccc(Cl)cc2)C1` . Reported growth inhibition?
Resp: 87.8

Req: Which growth inhibition reading was recorded for the molecule `CCCCCCCCCCCCCCCCCC1=NCCN1` ?
Resp: 99.3

Req: Reported growth inhibition, molecule C=C(C)/C([O-])=N/[N+](C)(C)CC(O)CCCCCCCCCCCC (centres undefined) : ____
Resp: 91.5

Req: Requested field: growth inhibition. Item: `O=C1C=C(OCC=C(C(F)(F)F)C(F)(F)F)C(=O)c2ccccc21`
Resp: 67.2

Req: Quick check: growth inhibition of `Cc1ccc(NC(=S)SCc2ccc(Cl)cc2)cc1Cl` ?
Resp: 91.9

Req: Endpoint output: growth inhibition of O=S1(=O)C(C(O)(c2ccccc2)c2ccccc2)CCCN1c1ccccc1 (centres undefined) . Value?
Resp: 21.4

Req: May I ask what growth inhibition has been recorded for CN(C)CCOC1(CC2CCCCC2)CCC(C(C)(C)C)CC1 (centres undefined) ?
Resp: 98.9

Req: # growth inhibition lookup, item `NC(=O)c1oc([N+](=O)[O-])c(-c2ccccc2)c1-c1ccccc1`
Resp: 92.2

====

test: NCI Yeast Anticancer Drug Screen. Data for the rad50 strain (AID 155);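 also: 0% = growth of vehicle-only cultures of the same strain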; settings: S. cerevisiae rad50 strain growth inhibition; at 50.0 µM; stronger effect = higher value
About 79,000 compounds went through this panel and 15% of them were active in at least one assay; those are over-represented in the sample as a whole.
If the reported growth inhibition equals or exceeds 70%, assign TRUE. If not, assign FALSE.

Req: Could you please find out whether `COc1ccc(-c2ccccc2)cc1SCCC(=O)O` has growth inhibition that meets 70% or exceeds it?
Resp: TRUE

Req: Does `Cc1ccc([P+](CCN2C(=O)c3ccccc3C2=O)(c2ccc(C)cc2)c2ccc(C)cc2)cc1` have a reported growth inhibition of at least 70%?
Resp: TRUE

Req: Is it the case that `COC1=CC(=O)c2ncccc2C1=O` has growth inhibition reaching or exceeding 70%?
Resp: TRUE

Req: hey, is growth inhibition for this one >= 70%? `c1ccc(SSc2ccccn2)nc1`
Resp: TRUE

Req: Kindly determine if growth inhibition recorded for `CN(CCCN(CCO)CCO)C1CC(C)(C)N(O)C(C)(C)C1` is above or exactly 70%.
Resp: FALSE

Req: Reported growth inhibition reaches at least 70% for `O=[N+]([O-])c1ccc(Cl)cc1C(Nc1nncs1)Nc1nncs1` ?
Resp: TRUE

Req: Tell me whether growth inhibition is at least 70% here: `Nc1[nH]cnc(=S)c1NC=O`
Resp: FALSE

Req: Dear colleague, could you confirm whether `COc1ccc(/C=N/NC(=O)c2ccco2)cc1OC` has growth inhibition at or above 70%?
Resp: FALSE

Req: Given the entry `CC(C)Cn1cnc2c(SCc3ccc(Cl)cc3Cl)nc(N)nc21` , answer whether its growth inhibition meets or surpasses 70%.
Resp: FALSE

Req: Say whether `COC(=O)CNC(=O)C(F)(F)F` shows growth inhibition of 70% or more.
Resp: TRUE

Req: Dear colleague, could you confirm whether CNC1c2ccccc2C(=O)c2cc3c(cc21)OCCOCCOCCOCCO3 (configuration not stated) has growth inhibition at or above 70%?
Resp: FALSE

Req: Is reported growth inhibition greater than or equal to 70% here: COC(=O)Nc1nc2ccc(C(C)(O)c3cccs3)cc2[nH]1 (configuration not stated)
Resp: TRUE

Req: Has `CSc1cc2c(cc1N)Cc1ccccc1-2` a recorded growth inhibition greater than or equal to 70%?
Resp: TRUE

Req: In plain terms: is recorded growth inhibition at least 70% for `Ic1[nH]c(I)c(I)c1I` ?
Resp: TRUE

Req: Check the entry `CCN(CC)CCNC(=O)c1ccc2c(c1O)C(=O)c1ccccc1C2=O` : does growth inhibition equal or exceed 70%?
Resp: FALSE

Req: Does COC(=O)C1=C(C(=O)OC)C2C(C)=CC(C)=CN2C(C(=O)OC)=C1C(=O)OC (configuration not stated) have a reported growth inhibition of at least 70%?
Resp: FALSE

Req: // inclusive: growth inhibition at least 70%? input: `CSC(=S)NN=C1CCCC1`
Resp: TRUE

Req: Exam item: decide whether the reported growth inhibition for `Cc1cc(SCC(=O)c2ccc(Cl)cc2)cc(C)[o+]1` is at least 70%.
Resp: TRUE

Req: Evaluate N#CC1C(=O)NC(=O)C(C#N)C1c1c(Cl)cccc1Cl (configuration not stated) : growth inhibition at minimum 70%?
Resp: TRUE

Req: Quick check, growth inhibition >= 70%? `C/C(=N/NC(=S)Nc1ccc([N+](=O)[O-])cc1)c1cccc(/C(C)=N\NC(=S)Nc2ccc([N+](=O)[O-])cc2)n1`
Resp: FALSE

Req: Quick check, growth inhibition >= 70%? `CNCCCNc1c2cc(OC)ccc2nc2cccc([N+](=O)[O-])c12`
Resp: TRUE

Req: Could you verify whether the entry `CCCOCCC#N` shows growth inhibition of no less than 70%?
Resp: FALSE

Req: Is growth inhibition at least 70%? Consider `COc1ccc(OC)c(C[P+](c2ccccc2)(c2ccccc2)c2ccccc2)c1`
Resp: TRUE

Req: Does growth inhibition meet or surpass 70% for `O=C(Nc1cccnc1)c1ccc(CSc2ccc(Cl)cc2)o1` ?
Resp: TRUE

Req: Check this compound for growth inhibition at or above 70%: `FC1(F)C2=C(SC3=C(S2)C(F)(F)C3(F)F)C1(F)F`
Resp: TRUE

Req: Reported growth inhibition at or above 70%? `O=C1C(Cl)=C(Cl)C(=O)c2cc(Cl)c(Cl)cc21`
Resp: TRUE

Req: Test whether the compound `S=C(SSSSC(=S)N1CCCCC1)N1CCCCC1` records growth inhibition of 70% or higher.
Resp: FALSE

Req: Is growth inhibition at least 70%? Consider `C=CS(=O)(=O)Cc1ccc(Cl)cc1`
Resp: TRUE

Req: Textbook exercise: given the entry `C(=C/c1ccnc2ccccc12)/c1cccs1` , state whether its growth inhibition is greater than or equal to 70%.
Resp: TRUE

Req: Assess whether reported growth inhibition for CNC(C)C(=O)c1ccc2ccc3ccccc3c2c1 (configuration not stated) sits at 70% or higher.
Resp: FALSE

Req: Answer whether growth inhibition of `O=[N+]([O-])c1ccc(N=C(Cl)C(Cl)(c2ccccc2)c2ccccc2)cc1` is greater than or equal to 70%.
Resp: TRUE

Req: Could you verify whether the entry `O=C(Nc1cccc(Cl)c1)OCCOC(=O)Nc1cccc(Cl)c1` shows growth inhibition of no less than 70%?
Resp: TRUE

Req: hey, is growth inhibition for this one >= 70%? `CC(=O)Nc1ccc2c(ccc3cccc[n+]32)c1`
Resp: TRUE

Req: Hi, just wondering whether Cc1ccc(C2(c3ccc(F)cc3)OC(=O)c3ccccc32)c(O)c1 (configuration not stated) shows growth inhibition of 70% or higher.
Resp: TRUE

Req: Exam item: decide whether the reported growth inhibition for CC(=O)OCC1OC(OC2C=C(O[Si](C)(C)C)C[C@H]3C(=O)C=CC(=O)[C@@H]23)C(OC(C)=O)C(OC(C)=O)C1OC(C)=O (some centres not stated) is at least 70%.
Resp: FALSE

Req: Could you please find out whether `C/C(=N\NC(=S)NNC(=S)N1CCCc2ccccc21)c1ccccn1` has growth inhibition that meets 70% or exceeds it?
Resp: TRUE

Req: Say whether `O=C(O)Cc1cc(I)c(Oc2ccc(O)c(I)c2)c(I)c1` shows growth inhibition of 70% or more.
Resp: TRUE

Req: Is growth inhibition at least 70%? Consider `COC(=O)/C=C1/OC(c2ccccc2)=C(C)C1=O`
Resp: FALSE

Req: Dear colleague, could you confirm whether c1cc2ccc1C1NCCCN1CCN1CCCNC1c1ccc(cc1)C1NCCCN1CCN1CCCNC21 (configuration not stated) has growth inhibition at or above 70%?
Resp: FALSE

Req: Assess whether reported growth inhibition for `O=C(CC(=O)c1ccccc1)CC(=O)c1ccccc1` sits at 70% or higher.
Resp: TRUE

Req: Answer whether growth inhibition of CC(C=O)Cc1ccccc1 (configuration not stated) is greater than or equal to 70%.
Resp: FALSE

Req: // inclusive: growth inhibition at least 70%? input: `O=[N+]([O-])c1ccc2nc(-c3ccccn3)[nH]c2c1`
Resp: TRUE

Req: In plain terms: is recorded growth inhibition at least 70% for CC1(C)CCN(CCOC(=O)C(c2ccccc2)C2C=CCCC2)C1 (configuration not stated) ?
Resp: FALSE

Req: Does O=C(OCC1OC(OCC(OC(=O)c2ccccc2)C(OC(=O)c2ccccc2)C(OC(=O)c2ccccc2)c2cnn(-c3ccccc3)n2)C(OC(=O)c2ccccc2)C(OC(=O)c2ccccc2)C1OC(=O)c1ccccc1)c1ccccc1 (configuration not stated) have a reported growth inhibition of at least 70%?
Resp: TRUE

Req: Check the entry O=C1c2ccccc2SCC12OC2c1ccc(Cl)cc1 (configuration not stated) : does growth inhibition equal or exceed 70%?
Resp: TRUE
